- Tested on: MS2 coat protein
- Assay info: apparent Kd, MS2 coat protein; higher = weaker binding; RNA-MaP array; FMN 200 µM where present
- Conditions: designed as: OFF switch for flavin mononucleotide; no ligand
Value kind: apparent Kd (nM)
# number only, unit nM dropped from output

INSERT INTO results (biosequence, value_kind, assay_result) VALUES
  ('GGAUAGGACAGAGGAUAUACGCGCUAGAGAUACUAGCAAAAUUUCCUCACAUGAGGAUCACCCAUGUAGAAGGCUGUCCUAUCG', 'apparent Kd', 20.1);

Task: Enter measured apparent Kd, system MS2 coat protein, for the sequence shown: CCACGGUAUGUAGGAUAUGCAUAGCAUUGCUAUGCAGAAGGACAUGAGGAUCACCCAUGUAUGUAUUCCAUACUAAUCCCGUGG
Output: 5.5

Task: Enter measured apparent Kd, system MS2 coat protein, for the sequence shown: CGUACCAUGUAGAAGGCAUAUCUCAAAGAGAUAUGAGGAUAUACAUGAGGAUCACCCAUGUAAAUGUACUCCAGGAAACUGGAA
Output: 47.8

Task: Enter measured apparent Kd, system MS2 coat protein, for the sequence shown: CAGGUAGACUGAGGAUAUACAGACCUAGUCUAUCUAGGUCAAUUAACCACAUGAGGAUCACCCAUGUAGAAGGCAGUCUGCCUG
Output: 15.9

Task: Enter measured apparent Kd, system MS2 coat protein, for the sequence shown: ACUAGAUGAGGAUAUGCAUGUUUUCAUGUUCUUCUAGAUUAACAUGAGGAUCACCCAUGUAGAAGGCGUCUUUU
Output: 21.4

Task: Enter measured apparent Kd, system MS2 coat protein, for the sequence shown: GGAUCGAAUGUGAGGAUAUGCAGGUCCUUGGAUCUGCAGAAGGCACAUGAGGAUCACCCAUGUGACCAAGAUCC
Output: 50

Task: Enter measured apparent Kd, system MS2 coat protein, for the sequence shown: CCUUCAGCGAACGAUACGAAUGGACAUGAGGAUCACCCAUGUAGAAGGACAGGAGAAUAACGACUGUAGGAUAUACAUUUAGUG
Output: 22.3

Task: Enter measured apparent Kd, system MS2 coat protein, for the sequence shown: CGAUGUUAUGUCAGGAUAUGCAUUGCGAAAGCGAUGCAGAAGGGACAUGAGGAUCACCCAUGUCCUAACCAUCG
Output: 12.3

Task: Enter measured apparent Kd, system MS2 coat protein, for the sequence shown: CUUAUGUGAGGAUAUCAGUAGUAAAAAAAUAAAAUUACUACUGAGAAGGCACAUGAGGAUCACCCAUGUGCCUC
Output: 14.4

Task: Enter measured apparent Kd, system MS2 coat protein, for the sequence shown: UUACUAUUACAGAAGGUUUAAUAAUAUAUAAAAGAAGGAUAUGUAACAUGAGGAUCACCCAUGUUUCACCCACAUGAGGAUCAU
Output: 10.8

Task: Enter measured apparent Kd, system MS2 coat protein, for the sequence shown: AGUCGGAGCAGAGGAUAUACAUGAGGAUCACCCAUGUAAAUGGAAUAAGACUGGAAACAGUCAAUGUAGAAGGCUGCUCCGACA
Output: 68.5

Task: Enter measured apparent Kd, system MS2 coat protein, for the sequence shown: UGAAAUCAUGUAGGAUAUGCAUGGCGAAGCUACGCAGAAGGACAUGAGGAUCACCCAUGUUCUAGCUACCGAGUACGGUGGCAA
Output: 23.1

Task: Enter measured apparent Kd, system MS2 coat protein, for the sequence shown: UCAUGUUAGCAGGAUAUGCUAUUUAUUUUUUAUGCAGAAGGGCUUACAUGAGGAUCACCCAUGUAUUAAGUUUU
Output: 154

Task: Enter measured apparent Kd, system MS2 coat protein, for the sequence shown: GGUGCCAUGUAGAAGGCAGAUCUGAUUCAGAUCUGAGGAUAUACAUGAGGAUCACCCAUGUAAAUGCACCGCACGAGAGUGCAA
Output: 33.1

Task: Enter measured apparent Kd, system MS2 coat protein, for the sequence shown: GACUUGUUAGGAUAUCUUACAUUUGCAUCAUAGUAACCUUUGGAGAAGGGACAUGAGGAUCACCCAUGUUUGGU
Output: 62.3
